- measured-on: β-secretase(BACE) (Homo sapiens, UniProt P56817)
- Construct: purchased Panvera
- Sequence (P56817 46-501): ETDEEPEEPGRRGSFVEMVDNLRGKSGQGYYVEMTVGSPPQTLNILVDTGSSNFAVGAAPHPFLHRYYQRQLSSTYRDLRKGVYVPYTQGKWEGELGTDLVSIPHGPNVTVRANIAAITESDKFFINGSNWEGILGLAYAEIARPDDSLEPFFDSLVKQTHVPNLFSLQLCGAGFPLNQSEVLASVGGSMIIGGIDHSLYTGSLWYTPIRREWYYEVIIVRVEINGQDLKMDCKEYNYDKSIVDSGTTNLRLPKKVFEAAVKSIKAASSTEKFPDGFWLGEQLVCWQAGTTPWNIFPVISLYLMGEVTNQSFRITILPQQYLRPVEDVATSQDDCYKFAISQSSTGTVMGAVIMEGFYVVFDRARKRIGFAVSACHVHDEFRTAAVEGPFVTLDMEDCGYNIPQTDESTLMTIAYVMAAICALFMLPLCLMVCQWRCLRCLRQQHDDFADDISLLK
- method-description: BACE Assay-1 (MCA-substrate, IC50)
- Assay type: biochemical
- run-parameters: procedure of Example 158; read-out: IC50 μM (158)
- Text: The following standards are reagents were used in this assay: Sodium Citrate trisodium salt dihydrate (Sigma), Citric Acid monohydrate (Merck), PEG8000 (Sigma), MCA-substrate (Bachem), β-secretase (BACE) (Panvera), 96-well plate zwart (Costar (Elscolab)), StatVal (Bachem). […] For test compounds, measured at multiple concentrations, the measured T0 and T60 values were used to calculate an IC50 value using Graphpad Software (or PIR).
Measured IC50 values are reported for all entries that follow.

The following compounds have reported results that may help.
>  <compound>
CN(CCc1ccccc1)C(=O)CCCCN1Cc2cc(C(=O)c3ccccc3)ccc2N=C1N

>  <parameter>
IC50

>  <result>
1 µM

$$$$
>  <compound>
CCCC(CCCC(=O)N(C)C1CCN(C)CC1)N1Cc2cc(Oc3ccccc3)ccc2N=C1N (stereo not shown)

>  <parameter>
IC50

>  <result>
0.15 µM

$$$$
>  <compound>
CCCN1Cc2cc(Oc3cccc(NS(=O)(=O)c4cccc(Br)c4)c3)ccc2N=C1N

>  <parameter>
IC50

>  <result>
> 10 µM

$$$$

So, `CCCN1Cc2cc(Oc3cccc(NS(=O)(=O)c4cccc(OC)c4)c3)ccc2N=C1N` ? Its IC50 was 0.39 µM

Entry source: patent US8383637B2
